# Tested on: HL-60
# procedure-details: Ability to inhibit human leukemic HL-60 cell growth in culture
# Type: functional, cell-based
# condition-info: Homo sapiens, HL-60
pIC50: −log10 of the molar value.
I would appreciate it if you labelled entries YES when pIC50 is 5 or higher, otherwise NO.

smiles-notation: COc1c(OC)c(OC)c2c(c1O)c(=O)c1ccc([N+](=O)[O-])cc1n2C
class: NO

smiles-notation: COc1ccc2c(=O)c3c(OC)c(OC)c(OC)c(OC)c3n(C)c2c1OC
class: NO

smiles-notation: COc1cc2c(c3c1c(=O)c1ccccc1n3C)C=CC(C)(C)O2
class: NO

smiles-notation: CCN(CC)CCn1c2c(OC)c(O)ccc2c(=O)c2c(O)c(OC)c(OC)c(OC)c21
class: NO

smiles-notation: COc1c(OC)c(OC)c2c(c1O)c(=O)c1cc([N+](=O)[O-])ccc1n2C
class: NO

smiles-notation: COc1ccc2c(=O)c3c(O)c(OC)c(OC)c(OC)c3n(C)c2c1OC
class: YES

---

Reported pIC50 values are given for each entry in this list.
# Test system: HL-60
# procedure-details: Ability to inhibit human leukemic HL-60 cell growth in culture
# Assay type: functional, cell-based
# condition-info: Homo sapiens, HL-60
pIC50: −log10 of the molar value.

compound: COc1c(OC)c(OC)c2c(c1O)c(=O)c1ccc(O)c(OC)c1n2C [GLYFOLINE]
operator-symbol: =
pIC50: 5.66
--
compound: CNc1ccc2c(=O)c3c(O)c(OC)c(OC)c(OC)c3n(C)c2c1
operator-symbol: =
pIC50: 4.97
--
compound: COc1c(OC)c(OC)c2c(c1O)c(=O)c1cc(N)ccc1n2C
operator-symbol: =
pIC50: 4.35
--
compound: COc1c(OC)c(O)c2c(O)c3ccc(O)c(OC)c3nc2c1OC
operator-symbol: <
pIC50: 4.00
--
compound: COc1c(OC)c(OC)c2c(c1O)c(=O)c1cccc(OC)c1n2C
operator-symbol: =
pIC50: 4.89
